- PROCEDURE TEXT: Ratio of unbound brain to plasma drug concentration in mouse at 10 mg/kg, ip measured after 0.5 hrs by LC-MS/MS analysis
- Format: ADME, organism-based
- REPORTED CONDITIONS: brain and plasma, read-out: K(p,uu,brain)
TEST READOUT: Kp uu at 0.5 h

// Input: `O=C(O)c1csc(-c2c(Cl)cccc2Cl)n1` . Output its Kp uu at 0.5 h only.
0.1

---

- Tested on: BCRP
- PROCEDURE TEXT: Apparent permeability across basolateral to apical side in human Caco-2 cells transfected with human BCRP at 3 uM preincubated with novobiocin for 15 to 30 mins followed by compound addition and measured after 60 to 90 mins by LC-MS/MS analysis
- Type: ADME, cell-based
- REPORTED CONDITIONS: time 60-90 min
TEST READOUT: Papp B→A at 3 µM (×10⁻⁶ cm/s)
Report only the number, with the unit ×10⁻⁶ cm/s understood.

// Input: `O=C(O)c1csc(-c2c(Cl)cccc2Cl)n1` . Output its Papp B→A at 3 µM only.
11.4
